Recorded Kd values for a group of compounds are listed next.
target: WT CBL-B (36-427) (Homo sapiens); construct: N-terminal biotinylated WT CBL-B (36-427) and C-CBL (46-435) were captured on a streptavidin (SA) coated sensor chip; test: Surface Plasmon Resonance (SPR) assay, binding affinity and kinetics, CBL-B; conditions: SPR at 10° C., biotinylated WT CBL-B (36-427) on streptavidin chip; geometric mean; read-out: CBL-B SPR Kd (nM) GMean
Sequence (Q13191 36-427): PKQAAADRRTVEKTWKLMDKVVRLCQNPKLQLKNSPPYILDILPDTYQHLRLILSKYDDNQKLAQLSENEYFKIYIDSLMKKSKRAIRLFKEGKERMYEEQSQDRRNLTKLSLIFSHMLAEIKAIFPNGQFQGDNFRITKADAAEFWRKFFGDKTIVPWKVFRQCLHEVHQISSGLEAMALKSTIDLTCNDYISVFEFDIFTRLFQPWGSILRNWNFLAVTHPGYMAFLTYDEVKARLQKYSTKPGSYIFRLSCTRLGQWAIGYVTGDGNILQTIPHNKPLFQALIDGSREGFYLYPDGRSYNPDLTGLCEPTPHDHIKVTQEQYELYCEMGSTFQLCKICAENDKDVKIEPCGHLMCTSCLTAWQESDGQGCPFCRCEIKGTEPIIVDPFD
The reply should contain only the number, in nM.

Example entries and their recorded answers appear below.
> print(dat)
                                   compound  assay.readout  reported.result
1  CC(CN)c1nc(C(F)(F)F)cc2c(-c3cccc(C4(Cc5nncn5C)COC4)c3)n[nH]c12 (single isomer, unassigned) [Example K7]             Kd                8
2  Cn1cnnc1CC1(c2cccc(-c3n[nH]c4cnc(Cl)cc34)c2)COC1 [Example B8]             Kd             15.9
3  Cn1cnnc1CC1(c2cccc(-c3n[nH]c4c(OCCN)nc(C(F)(F)F)cc34)c2)COC1 [Example J3]             Kd              3.2
4  C[C@H](c1nc(C(F)(F)F)cc2c(-c3cccc(C4(Cc5nncn5C)COC4)c3)n[nH]c12)N1CCNC(=O)C1 (single isomer, unassigned) [Example D52]             Kd             10.1

What value of measured Kd is listed for C[C@H](N)c1nc(C(F)(F)F)cc2c(-c3cccc([C@H](c4nncn4C)C4CCC4)c3)n[nH]c12 [Example K12] ?
4.2

Another compound to check: Cn1cnnc1[C@@H](c1cccc(-c2n[nH]c3c(CN4CC(F)(F)C4)nc(C(F)(F)F)cc23)c1)C1CCC1 [Example C115]
9.2

Same for Cn1cnnc1CC1(c2cccc(-c3n[nH]c4cnc(C5CC5)cc34)c2)COC1 [Example B4]
58.7

Also CC(O)c1nc(C(F)(F)F)cc2c(-c3cccc(C4(Cc5nncn5C)COC4)c3)n[nH]c12 (single isomer, unassigned) [Example K11] , if possible.
11.7
